# method_description: inhibitors of triacylglycerol accumulation, primary screen, cell-based, uHTS, fluorescence, H9c2 (AID 651582);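 also: 0% = DMSO wells and 100% = triacsin C control wells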
# test_parameters: H9c2 cells, Nile Red lipid (TAG) fluorescence, at 12.5 µM, cells loaded with 200 µM oleic acid
About 1,500 (0.65%) of roughly 230,000 compounds were called active.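 The calls were made as follows: active = pattern-corrected inhibition of lipid staining of at least 50% with the nuclear-stain viability signal not falling by more than 50%; inactive = the rest, inconclusive results apart.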 Many of the other results were omitted from the sample, so actives are more common in it than they were.
Labels: true (1) for active, false (0) for inactive

molecule | class_label
CC(=O)Nc1ccc2nc(NC(=O)CS(=O)(=O)c3ccc(F)cc3)sc2c1 | false (0)
CCCOC(=O)c1[nH]c2c(c1C)C(=O)CC(c1cccs1)C2 (stereo not given) | true (1)
O=C(COC(=O)/C=C/c1cccc(Cl)c1)NCc1cccs1 | false (0)
CCC1CCCCN1C(=S)NC(=O)c1ccco1 (stereo not given) | false (0)
Cc1onc(NC(=O)c2ccc([N+](=O)[O-])o2)c1Br | true (1)
CCN1C[C@@H]2[C@@H]3C(=O)N(Cc4ccccc4)C(=O)[C@@H]3[C@](C)(C1=O)N2C(=O)c1ccc(C(C)(C)C)cc1 | false (0)
Cc1cccc(OCC(=O)OCC(=O)Nc2ccc(Cl)cn2)c1 | false (0)
O=C(CSc1n[nH]c(=O)n1-c1ccccc1)Nc1ccccc1C(F)(F)F | false (0)
CC(=O)Oc1ccc(Cn2c(C)c(C(=O)NCc3ccc(C#N)cc3)sc2=O)cc1 | false (0)
Cc1ccc(/C=N/NC(=O)CN2CCN(Cc3ccccc3)CC2)s1 | false (0)
CS(=O)(=O)/C(C#N)=C/c1cccn1S(=O)(=O)c1ccc([N+](=O)[O-])cc1 | false (0)
CCc1ccc(-n2c(=S)sc3c(=O)n(-c4ccccc4OC)c(=S)[nH]c32)cc1 | false (0)
CSc1nc2ccc(NC(=O)c3c(F)cccc3F)cc2s1 | false (0)
COc1ccc(OCCNC(=O)c2cc(C3CC3)nc3c2cnn3C(C)C)cc1 | false (0)
COCCNc1ncnc2c1ncn2[C@H]1CN(CCN2CCOCC2)C[C@@H](CO)O1 | false (0)
O=C(OCCN1C(=O)c2ccccc2C1=O)[C@@H]1CC(O)CN1S(=O)(=O)c1ccccc1[N+](=O)[O-] (stereo not given in full) | false (0)
Cc1ccc(C)c(S(=O)(=O)N(C)c2ccc(OC(=O)C3CCN(C(=O)c4ccc(F)cc4)CC3)cc2)c1 | false (0)
COc1cccc(NC(=O)C2(C)CCN2Cc2ccccc2Cl)c1 (stereo not given) | false (0)
Cc1nc2ccccn2c(=O)c1NC(=O)c1ccc(Br)o1 | false (0)
C=CCNC(=S)N/N=C/c1ccc(C)s1 | true (1)
CC[C@]12c3[nH]c4ccc(OC)cc4c3CCN1C(=O)C(CC(=O)NCc1ccco1)C[C@@H]2C(=O)N1CCN(C(=O)C2CC2)CC1 (stereo not given in full) | false (0)
COC(=O)C1C(=O)c2c([nH]c(C(=O)OCCSC)c2C)CC1C (stereo not given) | false (0)
COc1ccc2sc(-c3ccc(S(C)(=O)=O)cc3)c(C#Cc3cncn3C)c2c1 | true (1)
COc1ccccc1-n1c(=S)[nH]c2c(sc(=S)n2-c2ccc(C)cc2C)c1=O | true (1)
CC(=O)c1cccc(-c2cnc3c(NC=O)cc(-c4cccc(C(=O)N(C)C)c4)cn23)c1 | false (0)
CCCCNc1c(-c2ccc(OC)c(Sc3ccc(OC)cc3)c2)nc2ccc(Cl)cn12 | false (0)
CCOC(=O)/C=c1\s/c(=C\c2ccc(C#N)cc2)c(=O)n1CC(=O)Nc1cccc(C)c1C | true (1)
Cc1cccc(NC(=O)CN2C(=O)c3ccccc3C2=O)c1C | false (0)
COc1cccc(-n2c(=S)sc3c(=O)n(-c4ccccc4OC)c(SCC4OCCO4)nc32)c1 | false (0)
CCNC(=O)C1(C)CCCN(C(=O)c2c(C)noc2C)C1 (stereo not given) | false (0)
CCCn1c(N)c(C(=O)CSc2nnc3n2CCCCC3)c(=O)[nH]c1=O | false (0)
CCCOC(=O)c1[nH]c2c(c1C)C(=O)CC(c1cc(OC)c(OC)c(OC)c1)C2 (stereo not given) | false (0)
CC(=O)Nc1ccc(C(=O)Nc2cc(S(=O)(=O)N3CCOCC3)ccc2N2CCOCC2)cc1 | false (0)
C=CCNC(=S)N/N=C/c1ccc(OCc2ccccc2)cc1 | false (0)
COc1cc(C(=O)NCC(c2ccco2)N2CCCC2)ccc1OCc1ccccc1 (stereo not given) | false (0)
CN(C)CCNC(=O)c1cccc(-c2cnc3c(NC=O)cc(-c4cccc(C(F)(F)F)c4)cn23)c1 | true (1)
CN(C)C(=O)c1cccc(-c2cnc3c(NC=O)cc(-c4ccc(F)cc4)cn23)c1 | false (0)
O=C(Nc1ccc(Br)cn1)c1ccc([N+](=O)[O-])o1 | false (0)
CN(C(=O)c1cccc(NC(=O)Cc2ccc(NC(=O)C3CCN(C(=O)C4CCCCC4)CC3)cc2)c1)C1CCC1 | false (0)
COc1cc(OC)c2ccc(=O)oc2c1C(CCN1CCN(c2ccccc2)CC1)c1ccc2c(c1)OCO2 (stereo not given) | false (0)
